Can you tell me yeast fitness for the items I'm about to list?
B1: tRNA (parent)
chain: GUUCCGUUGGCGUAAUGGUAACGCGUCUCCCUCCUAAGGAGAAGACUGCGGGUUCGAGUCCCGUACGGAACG

Variants of: B1
Test: yeast fitness relative to wild type (ratio to wild type); higher = fitter; tRNA-Arg(CCU), competitive growth, 37 C, YPD
Variants at the floor of the assay were thinned out.

Per the records, this variant ( C11G G41C C55U G58A ) has yeast fitness equal to ≤ 0.5

Per the records, this variant ( U7C G17A C55A ) has yeast fitness equal to ≤ 0.5

Per the records, this variant ( C5A G52A G58C ) has yeast fitness equal to ≤ 0.5

Per the records, this variant ( C46U C60G C62G ) has yeast fitness equal to ≤ 0.5

Per the records, this variant ( C30G C33G C34U A42U A57G A65C ) has yeast fitness equal to ≤ 0.5

Per the records, this variant ( G9C C27G C46G A65G ) has yeast fitness equal to ≤ 0.5

Per the records, this variant ( U2A U8A U47A A69U ) has yeast fitness equal to ≤ 0.5

Per the records, this variant ( C5U C46A C55G C66U A69U ) has yeast fitness equal to ≤ 0.5

Per the records, this variant ( C24G C34U A45C ) has yeast fitness equal to ≤ 0.5

Per the records, this variant ( C22A C31U C34G ) has yeast fitness equal to 0.536

Per the records, this variant ( C5U U13G C30U ) has yeast fitness equal to 0.663

Per the records, this variant ( C22G C31G C61U ) has yeast fitness equal to 0.587

Per the records, this variant ( G48A C55U A70G ) has yeast fitness equal to ≤ 0.5

Per the records, this variant ( C34A A37U G44A G51A C55A ) has yeast fitness equal to 0.603

Per the records, this variant ( G6C A57U ) has yeast fitness equal to 0.663

Per the records, this variant ( A14C G18A A20U ) has yeast fitness equal to ≤ 0.5

Per the records, this variant ( G9A C22A C60A ) has yeast fitness equal to 0.705

Per the records, this variant ( U3A C31U A40C U64A ) has yeast fitness equal to ≤ 0.5

Per the records, this variant ( C22U A40U A43U C46U C55U A65U ) has yeast fitness equal to ≤ 0.5

Per the records, this variant ( C30G A69C A70G ) has yeast fitness equal to ≤ 0.5

Per the records, this variant ( A20U G68A ) has yeast fitness equal to 0.843

Per the records, this variant ( U19G U47C C66U ) has yeast fitness equal to 0.786

Per the records, this variant ( C22A U26A ) has yeast fitness equal to 0.949

Per the records, this variant ( C5G C29A A36G A42C G44A C49U C60U ) has yeast fitness equal to ≤ 0.5

Per the records, this variant ( C11A C27U C31U C34G A40G G63C ) has yeast fitness equal to ≤ 0.5

Per the records, this variant ( A37U C49U C61G ) has yeast fitness equal to ≤ 0.5

Per the records, this variant ( G9A A42C C66U ) has yeast fitness equal to 0.543

Per the records, this variant ( U3A C34U A45G C49U U53A ) has yeast fitness equal to ≤ 0.5

Per the records, this variant ( A15C U28C G48C ) has yeast fitness equal to ≤ 0.5

Per the records, this variant ( A21U A37U A40U G50C ) has yeast fitness equal to ≤ 0.5

Per the records, this variant ( C22U A40G ) has yeast fitness equal to 0.834

Per the records, this variant ( A20C A43C G68U ) has yeast fitness equal to ≤ 0.5

Per the records, this variant ( U26A C34A ) has yeast fitness equal to 0.592

Per the records, this variant ( C27U G50C A65C ) has yeast fitness equal to ≤ 0.5
